Assay: physchem
Type: physicochemical
Details: pH 7.4, aqueous buffer, kinetic from dmso stock
propertyLabel: solubility at 24 h (µM)
Record the value in µM, omitting the unit from your answer.

Task item: Fill in the blank: the reported solubility at 24 h of O=C(CCC(F)(F)F)N1CCC2(CC1)CC(c1ccccc1)=NO2 [Compound 10] is ____.
Reply: 150
